Recorded values, source PubChem BioAssay (NCI).

For each entry below, report its GI50 value.
tested on: MOLT-4 leukemia; assay: NCI tumour cell line growth inhibition, 48 h

Enquiry: Could you share what GI50 was measured for C=C(C)[C@@H]1C/C=C(\COC(=O)[C@H](OC(C)=O)C(NC(=O)c2ccccc2)c2ccccc2)CC[C@H]2O[C@]2(C)CC/C=C(\C)CC1 (stereo not given in full) , tested on MOLT-4 leukemia?
Return: 17.6 µM

Enquiry: Queued: NS(=O)(=O)N(c1cc(C(F)(F)F)cc(C(F)(F)F)c1)C1CCN(Cc2ccc(C(F)(F)F)cc2)CC1
Return: 3.77 µM

Enquiry: Subsequent entry: COc1cccc(-n2ncc3c(N/N=C/c4ccc(F)cc4)ncnc32)c1
Return: > 25 µM

Enquiry: How about this compound: O[C@H]1C=C2[C@H](C[C@@H]1O)CN1C[C@H]2c2cc3c(cc21)OCO3
Return: > 100 µM

Enquiry: And the next one, CCCCSSC(=S)N(CC)CC ?
Return: 20.2 µM
